# Test system: MDA-MB-435 melanoma
# Measurement Protocol: NCI-60 one-dose screen, 48 h
# Condition Notes: 10 µM unless noted
The panel holds about 83,000 compounds, 20% with a hit somewhere; the sample as a whole holds those more often. Calls of active or inactive are those of the source. Rule for the calls: active = growth percent below 10; inactive = the rest.
Outcomes: active, inactive

# Molecule, Classification
records = [
    ("C=C(C)[C@@H]1CC[C@]2(C)[C@H](CC[C@@H]3[C@@H]([C@@](C)(O)CCC=C(C)C)CC[C@]32C)[C@@]1(C)CCC(=O)N1CCN(C)CC1", "active"),
    ("COc1ccc(C(=O)CSc2nccc(Nc3ccc(C(=O)O)cc3)n2)cc1", "inactive"),
    ("CC/C=C(\\C)C(CCC)(CN=O)C(=O)OCC (stereo not given)", "inactive"),
    ("CC1(C)S[C@@H]2[C@H](NC(=O)[C@H](C(=O)O)c3cccs3)C(=O)N2[C@H]1C(=O)O", "inactive"),
    ("CC1=C/C(=C(\\c2cc(C)c(O)c(C(=O)O)c2)c2c(Cl)cccc2Cl)C=C(C(=O)O)C1=O", "inactive"),
]

* * *

# Tested on: NCI-H460 lung
# Measurement Protocol: NCI-60 one-dose screen, 48 h
# Condition Notes: 10 µM unless noted
Compounds without any hit were thinned out: in the full panel of roughly 83,000, 20% have a hit. The source made the active and inactive calls. The calls were made as follows: active = growth percent below 10; inactive = the rest.
Outcomes: YES for active, NO for inactive

# Smiles String, Classification
records = [
    ("Oc1c(CNCCNCc2cc(Cl)cc(Cc3ccccc3)c2O)cc(Cl)cc1Cc1ccccc1", "YES"),
    ("Cc1cc(-c2ccc(N=Nc3c(S(=O)(=O)O)cc4cc(S(=O)(=O)O)cc(N)c4c3O)c(C)c2)ccc1N=Nc1cc(S(=O)(=O)O)c2ccccc2c1O", "NO"),
    ("CC(C)C1=NOC(=O)C1=Cc1cn(-c2ccccc2)nc1-c1ccc(Br)cc1", "NO"),
    ("CCCCCCCCCCCCCCNC(=O)Nc1ccc(Cl)c(Cl)c1", "NO"),
    ("Cn1cc(-c2noc(C(=O)c3cn(C)c4ncc(Br)cc34)n2)c2ccccc21", "NO"),
    ("N=C(N)c1ccc(-c2ccc(-c3ccc(-c4cccs4)s3)s2)cc1F", "NO"),
    ("COc1ccc(C2=C(c3cn(C)c4ccccc34)C(=O)OC2)cc1OC", "NO"),
    ("C=C(C)[C@@H]1CC[C@]2(C)[C@H](CC[C@@H]3[C@@H]([C@@](C)(O)CCC=C(C)C)CC[C@]32C)[C@@]1(C)CCC(=O)N1CCN(C)CC1", "YES"),
    ("COc1cc(OC)cc(C(=O)Nc2cc(-c3cccnc3)nc(NCCCN3CCOCC3)n2)c1", "NO"),
    ("O=C(CCN1CCCCC1)c1ccc2ccccc2c1", "NO"),
]

* * *

# Tested on: 786-0 renal
# Measurement Protocol: NCI-60 one-dose screen, 48 h
# Condition Notes: 10 µM unless noted
Compounds without any hit were thinned out: in the full panel of roughly 83,000, 20% have a hit. Active and inactive are the calls of the source. Rule for the calls: active = growth percent below 10; inactive = the rest.
Outcomes: active, inactive

# Molecule, Assayed System, Classification
data = [
    ("CCCCCCCCCCCCCCCCCCNC(=S)N/N=C/c1ccc(OC)c(OC)c1", "786-0 renal", "inactive"),
    ("O=C(Nc1cccc2cccnc12)c1cc(C(=O)c2ccc(Cl)cc2)n2ccc(-c3ccncc3)cc12", "786-0 renal", "inactive"),
    ("Cn1cc(-c2nnc(-c3ccccc3)s2)c2cc(Br)cnc21", "786-0 renal", "inactive"),
    ("Cc1cc(C)nc(SCC(=O)Nc2cccc(N=Cc3ccccc3O)c2)n1", "786-0 renal", "inactive"),
    ("COc1ccccc1S(=O)Nc1ccccc1 (centres undefined)", "786-0 renal", "inactive"),
    ("COc1ccc(C(C(=O)O)c2ccc(OC)cc2)cc1", "786-0 renal", "inactive"),
    ("C=C(C)[C@@H]1CC[C@]2(C)[C@H](CC=C3[C@@H]4[C@@H](C)[C@H](C)CC[C@]4(C(N)=O)CC[C@]32C)[C@@]1(C)CCC#N", "786-0 renal", "active"),
    ("COc1cc2c(c(Br)c1N)-c1cc(Br)c(N)cc1C2=O", "786-0 renal", "inactive"),
    ("CCc1ccc(NC(=O)N[C@@H](Cc2cc(F)cc(F)c2)C(=O)N[C@@H]2C(=O)N3C[C@H](O)C[C@H]3C(=O)N3CCOC[C@H]3C(=O)N[C@@H](C)C(=O)N3C[C@H](C)C[C@H]3C(=O)O[C@H]2C)cc1", "786-0 renal", "inactive"),
]

* * *

# Test system: NCI-H460 lung
# Measurement Protocol: NCI-60 one-dose screen, 48 h (100 = growth as untreated, 0 = no growth, -100 = all killed)
# Condition Notes: 10 µM unless noted
The panel holds about 83,000 compounds, 20% with a hit somewhere; the sample as a whole holds those more often. Active and inactive are the calls of the source. Rule for the calls: active = growth percent below 10; inactive = the rest.
Here the recorded growth is given for each entry.

# Smiles String, growth
records = [
    ("C=C(C)[C@@H]1CC[C@]2(C(=O)NCCNCCNC(=O)OC(C)(C)C)CC[C@]3(C)[C@H](CC[C@@H]4[C@@]5(C)CCC(=O)C(C)(C)[C@@H]5CC[C@]43C)[C@@H]12", "20.6% [100 µM] (inactive)"),
    ("CCCOc1ccc(-c2nc(-c3ccc(N)cc3)cs2)cc1", "98% (inactive)"),
    ("Nc1cc(N)c(N=Nc2ccc(S(=O)(=O)O)cc2)cc1N=Nc1ccc(-c2ccc(N=Nc3ccc(O)c(C(=O)O)c3)cc2)cc1", "105% (inactive)"),
    ("CC1(C)CC[C@]2(C(=O)OC(=O)[C@]34CCC(C)(C)C[C@@H]3C3=CC[C@@H]5[C@@]6(C)CCC(=O)C(C)(C)[C@@H]6CC[C@@]5(C)[C@]3(C)CC4)CC[C@]3(C)C(=CC[C@@H]4[C@@]5(C)CCC(=O)C(C)(C)[C@@H]5CC[C@]43C)[C@H]2C1", "58.3% [100 µM] (inactive)"),
    ("Cc1cnc(N)nc1OCC(C)(C)CNC(=O)c1cccc(-c2ccc(S(=O)(=O)Nc3ccc4c(c3)N(C(=O)C3CC3)CCC4)cc2)c1", "53.9% (inactive)"),
]

* * *

# Tested on: TK-10 renal
# Measurement Protocol: NCI-60 one-dose screen, 48 h (100 = growth as untreated, 0 = no growth, -100 = all killed)
# Condition Notes: 10 µM unless noted
# Protocol: Growth inhibition of the TK-10 human tumor cell line is measured as a screen for anti-cancer activity. Cells are grown in 96 well plates and exposed to the test compound for 48 hours. Compounds are tested at a single concentration, which is 10^-5 M for most compounds. The reported endpoint is percent growth (GI% or GIPRCNT), where numbers from 0 - 100% represent growth inhibition, and numbers from -100% - 0 represent cell death. For example, a value of 40 represents 60% growth inhibition. […]
Compounds without any hit were thinned out: in the full panel of roughly 83,000, 20% have a hit.
Response field label: string, one of met (growth strictly below 90%) or not met.

# Smiles String, Classification
measured = [
    ("COc1cc(C(=O)/C=C/c2c(-c3ccc(F)cc3)nc3sccn23)cc(OC)c1OC", "met"),
    ("Clc1ccccc1/C=N\\Nc1ccccn1", "met"),
    ("O=S(=O)(NCCNc1nccc(-c2c(-c3cccc(F)c3)nc3occn23)n1)c1ccc(C(F)(F)F)cc1", "not met"),
    ("O=C1COCCN1c1ccc(NCc2cn(Cc3ccccc3)c3ccccc23)cc1", "met"),
    ("Cc1nc(Cl)cc(N(c2cc(Cl)nc(C)n2)c2ncc(C(=O)Nc3c(C)cccc3Cl)s2)n1", "met"),
    ("N/C(=N\\c1nc2ccccc2[nH]1)NC(=O)Cc1cccc2ccccc12", "not met"),
    ("Cc1cc(C)c(-c2cc(O)c(-c3c(C)cc(C)cc3C)cc2O)c(C)c1", "met"),
    ("CSc1nc2c(c(=O)n1C)C1(C(=O)N(Cc3ccccc3)c3ccccc31)c1c(nc(SC)n(C)c1=O)N2", "not met"),
    ("Fc1ccc(NC(=S)c2ccccc2)cc1", "not met"),
    ("COc1c(B(O)O)cccc1-c1nc2ccc3[nH]ncc3c2c2c1CCC2", "met"),
]

* * *

# Test system: HCC-2998 colon
# Measurement Protocol: NCI-60 one-dose screen, 48 h (100 = growth as untreated, 0 = no growth, -100 = all killed)
# Condition Notes: 10 µM unless noted
This is part of a sample that, as a whole, favours compounds with a hit. Of some 83,000 tested, about 20% had one in any assay. Calls of active or inactive are those of the source. Rule for the calls: active = growth percent below 10; inactive = the rest.
Property Name: growth

# Molecule, Property Name, Recorded Measurement
rows = [
    ("O=S(=O)(NCCNc1nccc(-c2c(-c3cccc(F)c3)nc3occn23)n1)c1ccc(C(F)(F)F)cc1", "growth", "125% (inactive)"),
    ("COc1ccc(-c2cc(-c3ccccc3)nc(NCCNc3ccnc4cc(Cl)ccc34)n2)cc1", "growth", "-81.1% (active)"),
    ("Nc1nc(N)c2c(n1)NC(c1ccc(F)cc1)C1CCc3ccccc3C1=N2 (stereo unspecified)", "growth", "71.2% (inactive)"),
    ("CCCSc1nc(N)nc2nc[nH]c12", "growth", "115% (inactive)"),
    ("CC[C@@H]1NC(=O)[C@@H]2CCCCN2C(=O)[C@@H]2CCCN2C(=O)[C@@H](NC(=O)[C@H](Cc2cc(F)cc(F)c2)NC(=O)Nc2ccc(C3CC3)cc2F)[C@H](C)OC(=O)[C@@H]2C[C@@H](C)CN2C1=O", "growth", "-14.1% (active)"),
    ("COc1ccc(-c2cc(-c3ccc(Cl)cc3)nc(SCCCCCCC(=O)NO)n2)cc1", "growth", "59.8% (inactive)"),
    ("COc1ccc2c3ccnc(C(F)(F)F)c3n(CCCCN)c2c1", "growth", "95.7% (inactive)"),
    ("CSc1nc2sc3cc(Cl)c(Cl)cc3n2c(=N)c1C#N", "growth", "106% (inactive)"),
    ("O=C1CC(c2ccc3c(c2)OCO3)Nc2ccccc21 (stereo unspecified)", "growth", "35.3% (inactive)"),
    ("COc1ccc(-c2nc3ccccn3c2/C=C/C(=O)c2cc(OC)c(OC)c(OC)c2)cc1OC", "growth", "16.4% (inactive)"),
    ("CC(C)c1ccc(C(=O)Nc2nc3ccc(O)cc3s2)cc1", "growth", "-8.31% (active)"),
    ("COc1cc2c(cc1OCCCN1CCN(CCCOc3cc4c(cc3OC)C(=O)N3C[C@H](F)C[C@H]3C=N4)CC1)N=C[C@@H]1C[C@@H](F)CN1C2=O", "growth", "-13.1% (active)"),
    ("CCCCCCCCN(CCCCCCCC)CC(O)c1ccc(Cl)c(C)c1Cl (stereo unspecified)", "growth", "85.3% (inactive)"),
    ("Fc1cc2[nH]ncc2c2c3c(c(-c4cn[nH]c4C(F)(F)F)nc12)C1CCC3C1 (stereo unspecified)", "growth", "14.7% (inactive)"),
    ("C=C(C)[C@@H]1CC[C@]2(COC(=O)c3ccccc3C(=O)O)CC[C@]3(C)[C@H](CC[C@@H]4[C@@]5(C)CC[C@H](OC(=O)c6ccccc6C(=O)O)C(C)(C)[C@@H]5CC[C@]43C)[C@@H]12", "growth", "4.42% [100 µM] (active)"),
    ("COc1cc(/C=C/C(=O)/C=C/c2ccc(-n3ccnc3C)cc2)ccc1O", "growth", "-47.3% (active)"),
    ("COc1cc(OC)cc(C(=O)Nc2cc(-c3cccnc3)nc(NCCCN3CCOCC3)n2)c1", "growth", "123% (inactive)"),
    ("Cc1cc2c(C(C)C)c(O)c(O)c(C=NCc3ccoc3)c2c(O)c1-c1c(C)cc2c(C(C)C)c(O)c(O)c(C=NCc3ccco3)c2c1O", "growth", "35.5% (inactive)"),
    ("CCN(CC)CCS(=O)(=O)CCNc1ccnc2cc(Cl)ccc12", "growth", "-13.5% (active)"),
    ("O=[N+]([O-])c1cc([N+](=O)[O-])c(C(F)(F)F)cc1NN=C(c1ccc(O)cc1)c1ccc(O)cc1", "growth", "-55.5% (active)"),
    ("COc1ccc(/C=C/C=C\\C(=O)c2ccc(-n3ccnc3)cc2)cc1", "growth", "99.9% (inactive)"),
]
